- System: human breast cancer cell line (MCF-7)
- assay.remarks: MTT cell viability assay, MCF-7
- Format: cell-based
- run.parameters: MCF-7, 48 h treatment
recorded.metric: IC50 (µg/mL)
Reply numerically in µg/mL, unit not repeated.

Examples with their reported IC50 follow.
C[N+](C)(C)CCO.[Cl-] [Solvent 2, choline chloride] | 8.95
C[N+](C)(C)CCO.[Cl-] [Solvent 6, choline chloride] | 13.05
C[N+](C)(C)CCO.[Cl-] [Solvent 14, choline chloride] | 12.23
OCC(O)CO | 74.73
C[N+](C)(C)CCO.[Cl-] [Solvent 10, choline chloride] | 12.51

Alright, here's another molecule for you.
**Query** Quick check: IC50 of OCCO ?
**Result** 53.91
